Reference source: patent US10597388B2

Readings of Blackgrass plant response rating for the listed compounds
System: blackgrass (Alopecurus myosuroides)
Experiment: Test C greenhouse herbicide test, pre- and postemergence
Format: in vivo
Conditions: postemergence, 62 g ai/ha; scale 0 to 100, 0 no effect, 100 complete control

| compoundStructure | Blackgrass plant response rating |
| --- | --- |
| CC(=O)Oc1c(C#N)nn(C)c(=O)c1-c1c(C)ccc2ccccc12 | 30 |
| Cc1sc2ccc(Cl)cc2c1-c1c(OS(C)(=O)=O)c(Cl)nn(C)c1=O | 0 |
| Cc1ccc2ccccc2c1-c1c(O)c(Cl)nn(C)c1=O | 45 |
| CC(=O)Oc1c(C)nn(C)c(=O)c1-c1c(C)sc2ccc(C)cc12 | 55 |
| Cc1nn(C)c(=O)c(-c2cc(F)cc3ccccc23)c1OS(C)(=O)=O | 10 |
| Cc1ccc(-c2c(O)c(Br)nn(C)c2=O)c2ccccc12 | 10 |
| COc1nn(C)c(=O)c(-c2c(C)sc3ccc(Cl)cc23)c1O | 5 |
| Cc1nn(C)c(=O)c(-c2c(C)sc3ccccc23)c1O | 5 |
| CC(=O)Oc1c(C)nn(C)c(=O)c1-c1c(C)oc2ccc(C)cc12 | 0 |
| CC(=O)Oc1c(C)nn(C)c(=O)c1-c1c(C)oc2c(C)cc(C)cc12 | 5 |
| COc1ccc2ccccc2c1-c1c(O)c(C)nn(C)c1=O | 15 |

----------
Test system: field violet (Viola arvensis)
Assay: Test D controlled growth environment herbicide test, pre- and postemergence
Format: in vivo
Settings: Preemergence, 125 g ai/ha; scale 0 to 100 (0 no effect, 100 complete control)
Plant response rating, Field Violet for assorted molecules

| compoundStructure | Plant response rating, Field Violet |
| --- | --- |
| Cc1nn(C)c(=O)c(-c2c(C)sc3ccc(Cl)cc23)c1O | 95 |
| COc1nn(C)c(=O)c(-c2c(C)ccc3ccccc23)c1OC(=O)OC(C)C | 70 |
| CCC(=O)Oc1c(C)nn(C)c(=O)c1-c1c(C)sc2ccc(C)cc12 | 100 |
| Cc1cc(C)c2sc(C)c(-c3c(OC(=O)OC(C)C)c(C)nn(C)c3=O)c2c1 | 100 |
| CCOC(=O)Oc1c(C)nn(C)c(=O)c1-c1c(C)ccc2ccccc12 | 80 |
| C#CCOC(=O)Oc1c(C)nn(C)c(=O)c1-c1c(C)sc2ccc(C)cc12 | 95 |
| CCC(=O)Oc1c(C)nn(C)c(=O)c1-c1c(C)sc2c(C)cc(C)cc12 | 100 |

----------
Test system: windgrass (Apera spica-venti)
Test: Test D controlled growth environment herbicide test, pre- and postemergence
Assay type: in vivo
Settings: Postemergence, 31 g ai/ha; scale 0 to 100 (0 no effect, 100 complete control)
Listed here: items and their measured Windgrass plant response rating.
reportedEndpoint: Windgrass plant response rating

| compoundStructure | subjectOfTest | observedValue |
| --- | --- | --- |
| CCC(=O)Oc1c(C)nn(C)c(=O)c1-c1c(C)sc2ccc(Cl)cc12 | windgrass (Apera spica-venti) | 60 |
| Cc1cc(C)c2sc(C)c(-c3c(OC(=O)OCCCl)c(C)nn(C)c3=O)c2c1 | windgrass (Apera spica-venti) | 60 |
| Cc1ccc2ccccc2c1-c1c(O)c(C)nn(C)c1=O | windgrass (Apera spica-venti) | 75 |
| COC(=O)Oc1c(C)nn(C)c(=O)c1-c1c(C)sc2c(C)cc(C)cc12 | windgrass (Apera spica-venti) | 70 |
| CC(=O)Oc1c(C)nn(C)c(=O)c1-c1c(C)sc2c(C)cc(C)cc12 | windgrass (Apera spica-venti) | 75 |
| CC(=O)Oc1c(C)nn(C)c(=O)c1-c1ccc(F)c2ccccc12 | windgrass (Apera spica-venti) | 30 |
| CCC(=O)Oc1c(C)nn(C)c(=O)c1-c1c(C)sc2c(C)cc(C)cc12 | windgrass (Apera spica-venti) | 70 |
| COc1nn(C)c(=O)c(-c2c(C)ccc3ccccc23)c1OC(=O)OC(C)C | windgrass (Apera spica-venti) | 40 |
| CC(=O)Oc1c(Br)nn(C)c(=O)c1-c1c(C)ccc2ccccc12 | windgrass (Apera spica-venti) | 20 |
| Cc1nn(C)c(=O)c(-c2c(C)sc3ccc(Cl)cc23)c1O | windgrass (Apera spica-venti) | 55 |
